Entry source: ChEMBL document CHEMBL1201862

Test system: SW-620
Test: NCI tumour cell line growth inhibition, 48 h
Calls of active or inactive are those of the source. Rule as the data show it: active = GI50 up to about 1.1 µM and inactive = higher.
readout-type: GI50

Previously resolved entries follow.
# molecule, measured-on, readout-type, value
measured = [
    ("COc1ccccc1/C=C\\c1cnnc2ccccc12", "SW-620", "GI50", "> 10 µM (inactive)"),
    ("CC(=O)c1ccc(NC(=O)C(=O)CC(=O)c2sc(-n3nc(-c4ccccc4)cc3-c3ccccc3)nc2C)cc1", "SW-620", "GI50", "> 100 µM (inactive)"),
    ("COc1cc2c(cc1-c1coc3cc(O)ccc3c1=O)OCO2", "SW-620", "GI50", "32.8 µM (inactive)"),
    ("CN(C)CCN(C)CCC(=O)/C=C/c1ccccc1", "SW-620", "GI50", "18.5 µM (inactive)"),
]

So what's the measured GI50 for this one? COC(=O)c1ccc(Oc2nc3ccccc3nc2-c2cccs2)cc1
46.8 µM (inactive)

Entry to check: COc1cc(S(=O)(=O)Nc2nc(-c3ccc(N4C(=O)C(CC(=O)O)SC4c4cccs4)cc3)cs2)ccc1Cl (stereo not given)
28.9 µM (inactive)

Entry to check: O=C1C(Cl)C2(CC(/C=C/c3ccccc3O)=NN2c2cccc(S(=O)(=O)O)c2)N1c1nc2ccccc2s1 (stereo not given)
17.4 µM (inactive)

Entry to check: C(=N\CCCN1CCN(CCC/N=C/c2cccc3ccccc23)CC1)/c1cccc2ccccc12
64.9 µM (inactive)

Entry to check: C#CCOCCCC(=O)O
> 100 µM (inactive)

Entry to check: CC(=O)N(C)c1cc(NCc2ccccc2)ccc1OCc1ccccc1
24.9 µM (inactive)
